FYI, the data here is from patent US8466176B2.

Assign log p to each entry below.
- Test Description: logP(HCOOH) reported with HPLC/MS
- Protocol Conditions: method [a]: HPLC on reversed phase columns, pH 2.3 with 0.1% phosphoric acid and acetonitrile as eluent

log p recorded for this compound, CC(=O)OCCCC#Cc1nc(CON=C(c2ccccc2)c2nnnn2C)cs1 , is 3.17^[a]

log p recorded for this compound, Cn1nnnc1C(=NOCc1cccc(NCC2CC2(F)F)n1)c1ccccc1 (stereo not drawn) , is 2.17^[a]

log p recorded for this compound, Cn1nnnc1C(=NOCc1cccc(N(CC2CC2)C(=O)OC(C)(C)C)n1)c1ccccc1 , is 4.7^[a]

log p recorded for this compound, Cn1nnnc1C(=NOCc1cccc(NCCC2CC(F)(F)C2(F)F)n1)c1ccccc1 (stereo not drawn) , is 2.51^[a]

log p recorded for this compound, Cn1nnnc1C(=NOCc1cccc(NCC2CC2)n1)c1ccccc1 , is 1.75^[a]

log p recorded for this compound, CCCC#Cc1nc(CON=C(c2ccccc2)c2nnnn2C)cs1 , is 3.89^[a]
